The values you see were collected from PubChem BioAssay AID2252.

Form field: EC50 (one value per entry).
- Test system: THP-1 viability, CellTiter-Glo luminescence, 72 h
- protocol_summary: PubChem AID 2252

compound: Nc1c(Cl)ncnc1N/N=C/c1ccccn1
EC50: 0.36 µM

compound: COc1ccc(N2CC(C(=O)N/N=C/c3cc([N+](=O)[O-])ccc3O)CC2=O)cc1 (stereo unspecified)
EC50: 17.7 µM

compound: COc1cc([N+](=O)[O-])cc(/C=N/NC(=O)C(C)Nc2cccc(C)c2)c1O (stereo unspecified)
EC50: 27 µM

compound: OCCCCNCc1ccc(OCc2ccccc2Cl)cc1
EC50: 34.6 µM

compound: O=C(N/N=C/c1ccc([N+](=O)[O-])s1)c1ccccc1Br
EC50: 15.2 µM

compound: Clc1ccc(CONc2ncnc3nonc23)c(Cl)c1
EC50: 47.7 µM

compound: CC1CCC(C(C)C)C(OC(=O)Cn2c(-c3ccc(Cl)cc3)[n+](C)c3ccccc32)C1 (stereo unspecified)
EC50: 2.22 µM

compound: COc1ccc2[nH]cc(C(=O)CCl)c2c1
EC50: 7.78 µM

compound: O=C(C[n+]1cc(Br)cc2ccccc21)c1ccc(Cl)cc1
EC50: 44 µM

compound: COC(=O)c1ccc(CSc2ccc3nnc(-c4ccc(OC)c(OC)c4)n3n2)o1
EC50: 10.3 µM

compound: CSc1ccc2c(c1)N(CCC1CCCCN1C)c1ccccc1S2 (stereo unspecified)
EC50: 13 µM

compound: C#CCOCCOCCOCCNc1nc(N2CCN(C(=O)CCCCCCCCCCNC(=O)[C@@H](CCSC)n3cc(CCO)nn3)CC2)nc(N2CCN(C(=O)CCCCCCCCCCNC(=O)[C@H]([C@@H](C)CC)n3cc(CCCCCN)nn3)CC2)n1
EC50: 12.9 µM

compound: OCCNc1nc(Nc2ccccc2)nc2ccccc12
EC50: 3.06 µM

compound: O=C(N/N=C/c1cc([N+](=O)[O-])ccc1O)C1CC1
EC50: 27.7 µM

compound: N#C/C(N=Nc1ccccc1O)=N\Nc1ccccc1O
EC50: 4.42 µM

compound: Cc1cc(NC(=O)/C=C/C(=O)N(c2ccccc2C)C(C(=O)NC2CCCC2)c2ccc(F)cc2)no1 (stereo unspecified)
EC50: 37.5 µM

compound: CCCCCCCSc1cc(OC)c(CCN(C)C)cc1OC
EC50: 9.51 µM

compound: Oc1c(CN2CCOCC2)cc(COCc2ccccc2)c2cccnc12
EC50: 2.24 µM

compound: Cc1[nH]nc2c1C(c1ccc(-c3ccccc3C#N)o1)C(C#N)=C(N)O2 (stereo unspecified)
EC50: 30.6 µM

compound: O=C(N/N=C/c1ccccc1O)C1SCCCS1
EC50: 26.1 µM

compound: CCc1cccc(NC(=O)CSC2=NS(=O)(=O)c3ccccc32)c1
EC50: 15.6 µM

----------
- Test system: THP-1 viability, CellTiter-Glo luminescence, 72 h
- protocol_summary: PubChem AID 2252
Form field: EC50 (one value per entry).
parameter: EC50

compound: Oc1c(CN2CCN(c3ccccn3)CC2)cc(Cl)c2cccnc12
parameter: EC50
experimental_value: 1.64 µM
//
compound: CCC[C@H](CN[C@@H](CNC)[C@H](C)CC)NCCc1cc(C(F)(F)F)cc(C(F)(F)F)c1
parameter: EC50
experimental_value: 4.07 µM
//
compound: COc1ccc(CNCC(O)COc2ccc(C(C)(C)c3ccccc3)cc2)cc1 (stereo unspecified)
parameter: EC50
experimental_value: 14.7 µM
//
compound: O=C(NC(=S)NNC(=O)c1ccco1)c1ccc(Br)cc1
parameter: EC50
experimental_value: 19.7 µM
//
compound: Cc1ccc(C(=O)Sc2cccccc2=O)cc1
parameter: EC50
experimental_value: 2.27 µM
//
compound: CCc1ccc(N2CC(C(=O)N/N=C/c3cc([N+](=O)[O-])ccc3O)CC2=O)cc1 (stereo unspecified)
parameter: EC50
experimental_value: 11.3 µM
//
compound: CNC[C@@H](Cc1ccccc1)NC[C@@H](CC1CCCCC1)NCCCc1ccccc1
parameter: EC50
experimental_value: 3.56 µM
//
compound: CCCCCCCNC(=O)C1(CC2CC(c3cccc(Br)c3)=NO2)CCNCC1 (stereo unspecified)
parameter: EC50
experimental_value: 7 µM
//
compound: CCn1nccc1C(=O)Nc1cc(Cl)cc(Cl)c1
parameter: EC50
experimental_value: 37 µM
//
compound: O=C1C=C(Nc2ccccc2O)c2ccccc2C1=O
parameter: EC50
experimental_value: 10.8 µM
//
compound: CCCCCCCCCn1c2c(c(=N)c3c1CCC3)CCC2
parameter: EC50
experimental_value: 0.52 µM
//
compound: O=C(C[n+]1cc(-c2ccccc2)n2c1CCC2)Nc1nc(-c2ccc(F)cc2)cs1
parameter: EC50
experimental_value: 32.4 µM
//
compound: Cn1c(-c2ccc(Cl)cc2)cnc1N
parameter: EC50
experimental_value: 33.8 µM
//
compound: COc1cc(/C=C/[N+](=O)[O-])ccc1O
parameter: EC50
experimental_value: 12.1 µM
//
compound: CC(=O)NNC(=S)NC(=O)c1ccccc1
parameter: EC50
experimental_value: 44.8 µM
//
compound: C#CCOCCOCCOCCNc1nc(N2CCN(C(=O)CCCCCCCCCCNC(=O)Cn3cc(C[C@@H](C)O)nn3)CC2)nc(N2CCN(C(=O)CCCCCCCCCCNC(=O)[C@H](CCCN=C(N)N)n3cc(C[C@@H](C)CC)nn3)CC2)n1
parameter: EC50
experimental_value: 14.3 µM
